Molecular target: UniProtKB Q12809
Sequence (Q12809 whole entry): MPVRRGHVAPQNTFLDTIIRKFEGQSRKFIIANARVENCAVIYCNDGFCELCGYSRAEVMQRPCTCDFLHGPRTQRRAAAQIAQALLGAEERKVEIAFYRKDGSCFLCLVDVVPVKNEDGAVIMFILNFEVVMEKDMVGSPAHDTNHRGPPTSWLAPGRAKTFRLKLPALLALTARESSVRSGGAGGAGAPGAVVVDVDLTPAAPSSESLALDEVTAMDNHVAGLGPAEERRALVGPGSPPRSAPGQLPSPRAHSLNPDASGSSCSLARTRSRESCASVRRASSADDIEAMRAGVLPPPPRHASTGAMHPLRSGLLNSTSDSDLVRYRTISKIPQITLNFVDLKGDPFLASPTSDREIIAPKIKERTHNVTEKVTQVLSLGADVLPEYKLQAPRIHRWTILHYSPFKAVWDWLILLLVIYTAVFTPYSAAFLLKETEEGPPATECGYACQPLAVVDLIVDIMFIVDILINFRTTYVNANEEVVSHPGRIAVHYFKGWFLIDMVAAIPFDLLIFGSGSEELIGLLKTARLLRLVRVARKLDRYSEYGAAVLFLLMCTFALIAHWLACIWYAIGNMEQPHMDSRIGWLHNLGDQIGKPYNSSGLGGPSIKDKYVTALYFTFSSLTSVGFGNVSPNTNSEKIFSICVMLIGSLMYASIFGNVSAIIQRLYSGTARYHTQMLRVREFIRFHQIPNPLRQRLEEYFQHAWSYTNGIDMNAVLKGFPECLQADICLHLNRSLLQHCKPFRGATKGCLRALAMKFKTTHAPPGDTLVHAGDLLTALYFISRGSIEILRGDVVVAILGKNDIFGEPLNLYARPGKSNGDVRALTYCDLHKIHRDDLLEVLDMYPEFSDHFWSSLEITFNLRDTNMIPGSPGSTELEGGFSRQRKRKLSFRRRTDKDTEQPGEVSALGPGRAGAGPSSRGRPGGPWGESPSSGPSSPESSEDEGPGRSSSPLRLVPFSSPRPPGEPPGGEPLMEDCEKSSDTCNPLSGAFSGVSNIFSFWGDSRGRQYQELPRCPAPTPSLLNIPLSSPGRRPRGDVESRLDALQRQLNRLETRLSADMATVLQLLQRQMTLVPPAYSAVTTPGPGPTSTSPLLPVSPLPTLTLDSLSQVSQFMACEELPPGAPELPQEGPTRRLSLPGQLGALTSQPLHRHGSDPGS
Assay: hERG-Channel Assay (Assay 3), whole-cell patch clamp
Format: cell-based
Details: human, HEK293 cells stably transfected with hERG, pH 7.4; 10 μM, HEK293 cells transfected with hERG
// label = yes (1) if inhibition at 10 µM is not less than 10%, otherwise no (0)

inhibition at 10 µM >= 10% for CO[C@H]1[C@H](C)C[C@@]2(Cc3ccc(C#N)cc3[C@]23N=C(N)N(C2COC2)C3=O)C[C@@H]1C ? yes (1)

inhibition at 10 µM >= 10% for CC[C@@H]1C[C@@]2(Cc3ccc(C#N)cc3[C@]23N=C(N)N(CC(C)(C)F)C3=O)C[C@H](C)[C@H]1OC ? no (0)

inhibition at 10 µM >= 10% for CO[C@H]1[C@H](C)C[C@@]2(Cc3ccc(C#N)cc3[C@]23N=C(N)N(CC2CCOCC2)C3=O)C[C@@H]1C ? no (0)

inhibition at 10 µM >= 10% for CO[C@H]1CC[C@@]2(Cc3ccc(C#N)cc3[C@]23N=C(N)N(CC2(C)COC2)C3=O)C[C@@H]1C ? yes (1)

inhibition at 10 µM >= 10% for CO[C@H]1[C@H](C)C[C@@]2(Cc3ccc(C#N)cc3[C@]23N=C(N)N(CC2(C)OCCO2)C3=O)C[C@@H]1C ? no (0)

inhibition at 10 µM >= 10% for CO[C@H]1CC[C@@]2(Cc3ccc(C#N)cc3[C@]23N=C(N)N(Cc2ncccn2)C3=O)C[C@@H]1C ? yes (1)

###

Please go through the items and note down their pIC50.
Tested on: production of Abeta1-x peptides in H4 neuroglioma cell line stably expressing human APP
Assay: H4-APPwt Cell-Based Assay (Assay 2), Abeta1-x production
Settings: Homo sapiens; Table 2 comparison examples; read-out: H4-Cell assay (assay 2)
Method: H4-APPwt Cell-Based Assay (Assay 2) Cellular potency of the compounds of the invention was assessed in an assay monitoring production of Abeta1-x peptides in the H4 neuroglioma cell line (ATCC, Cat. #HTB-148) stably expressing human APP, using an immunoassay such as AlphaLISA (PerkinElmer, Cat.# AL288). […] Concentrations of Ab1-x were determined using AlphaLISA immunoassay (PerkinElmer, Cat.# AL288) following manufacturer's protocol. […]
pIC50 here is simply -log10 of the concentration when that concentration is written in mol/L.

Returns the measured pIC50 for the input compound. Input: COCCN1C(=O)C2(N=C1N)c1cc(C#N)ccc1C[C@]21CC[C@@H](OC)CC1 (stereo partly shown) [Comparison example drawing 14, reference compound] 7.80

Returns the measured pIC50 for the input compound. Input: CO[C@H]1CC[C@]2(CC1)Cc1ccc(CCC3CC3)cc1[C@]21N=C(N)N(C[C@@H]2CCO2)C1=O [Comparison example drawing 20, reference compound] 7.80

Returns the measured pIC50 for the input compound. Input: COC1CCC2(CC1)Cc1ccc(C#N)cc1C21N=C(N)N(C(C)C)C1=O (stereo not shown) [Comparison example drawing 17, reference compound] 7.80

Returns the measured pIC50 for the input compound. Input: COC1CCC2(CC1)Cc1ccc(C#N)cc1C21N=C(N)N(CC2CCCO2)C1=O (stereo not shown) [Comparison example drawing 11, reference compound] 8.15

###

Test: In Vitro Phospholipidosis Assay (Assay 4), Nile red staining
Format: cell-based
Conditions: human, first effect concentration, U937 cells, read-out: Phospholipidosis FEC IC50 μM (assay 4)
readoutLabel: IC50 at 48 h

Returns the measured IC50 at 48 h for the input compound. Input: CO[C@H]1[C@H](C)C[C@@]2(Cc3ccc(F)cc3[C@]23N=C(N)N(C[C@@H]2CCOC2)C3=O)C[C@@H]1C 200 µM

Returns the measured IC50 at 48 h for the input compound. Input: CO[C@H]1[C@H](C)C[C@@]2(Cc3ccc(F)cc3[C@]23N=C(N)N(CC2(C)OCCO2)C3=O)C[C@@H]1C 200 µM

Returns the measured IC50 at 48 h for the input compound. Input: CO[C@H]1[C@H](C)C[C@@]2(Cc3ccc(C#N)cc3[C@]23N=C(N)N(CC2COC2)C3=O)C[C@@H]1C 200 µM

Returns the measured IC50 at 48 h for the input compound. Input: CO[C@H]1[C@H](C)C[C@@]2(Cc3ccc(C#N)cc3[C@]23N=C(N)N(Cc2ncc(F)cn2)C3=O)C[C@@H]1C 200 µM

Returns the measured IC50 at 48 h for the input compound. Input: CO[C@H]1[C@H](C)C[C@@]2(Cc3ccc(C#N)cc3[C@]23N=C(N)N(CC2(C)COC2)C3=O)C[C@@H]1C > 400 µM

Returns the measured IC50 at 48 h for the input compound. Input: CO[C@H]1CC[C@@]2(Cc3ccc(C#N)cc3[C@]23N=C(N)N(Cc2ccncn2)C3=O)C[C@@H]1C 400 µM

Returns the measured IC50 at 48 h for the input compound. Input: CO[C@H]1CC[C@@]2(Cc3ccc(C#N)cc3[C@]23N=C(N)N(Cc2ncccn2)C3=O)C[C@@H]1C 200 µM

###

Test: In Vitro Phospholipidosis Assay (Assay 4), Nile red staining
Assay type: cell-based
Conditions: human, first effect concentration, U937 cells, read-out: Phospholipidosis FEC IC50 μM (assay 4)
readoutLabel: IC50 at 48 h

Returns the measured IC50 at 48 h for the input compound. Input: CO[C@H]1[C@H](C)C[C@@]2(Cc3ccc(C#N)cc3[C@]23N=C(N)N(CC2(C)OCCO2)C3=O)C[C@@H]1C > 400 µM

Returns the measured IC50 at 48 h for the input compound. Input: CO[C@H]1[C@H](C)C[C@@]2(Cc3ccc(C#N)cc3[C@]23N=C(N)N(C[C@H]2CCCO2)C3=O)C[C@@H]1C > 200 µM

Returns the measured IC50 at 48 h for the input compound. Input: CC[C@@H]1C[C@]2(CC[C@H]1OC)Cc1ccc(C#N)cc1[C@]21N=C(N)N(CC2(F)CCOCC2)C1=O > 400 µM

Returns the measured IC50 at 48 h for the input compound. Input: CO[C@H]1CC[C@@]2(Cc3ccc(C#N)cc3[C@]23N=C(N)N(CC2COCCO2)C3=O)C[C@@H]1C (stereo partly shown) > 200 µM

###

Assay: In Vitro Phospholipidosis Assay (Assay 4), Nile red staining
Type: cell-based
Settings: human, first effect concentration, U937 cells, read-out: Phospholipidosis FEC IC50 μM (assay 4)
Please go through the items and note down their IC50 at 48 h.

Returns the measured IC50 at 48 h for the input compound. Input: CC[C@@H]1C[C@]2(CC[C@H]1OC)Cc1ccc(C#N)cc1[C@]21N=C(N)N(CC(C)(C)F)C1=O [Example 3] > 200 µM

Returns the measured IC50 at 48 h for the input compound. Input: CO[C@H]1[C@H](C)C[C@@]2(Cc3ccc(C#N)cc3[C@]23N=C(N)N(CC2(F)CCOCC2)C3=O)C[C@@H]1C [Example 23] > 200 µM

Returns the measured IC50 at 48 h for the input compound. Input: CO[C@H]1[C@H](C)C[C@@]2(Cc3ccc(C#N)cc3[C@]23N=C(N)N(C[C@H]2COCCO2)C3=O)C[C@@H]1C [Example 22] > 400 µM
